Recorded values, source patent US20230340151A1.

# measured.on: T1, Human GUCY2C ECD Cleaved (human, UniProt P25092 24-430)
# T1 construct: also called human GUCY2c extracellular domain protein (ECD)
# experiment: SPR, human IgG1 against human GUCY2c ECD
parameter.measured: pKd
Friendly reminder that pKd comes from taking -log10 of the concentration in mol/L.

GUCY2C-1710 (antibody, human IgG1, V domains shown, full human IgG1/kappa) VH: EVQLVESGGGLVQPGGSLRLSCAASGFTFSSYWMHWVRQAPGKGLEWIGEIKPSRGWTNVHEKFKDRFTISVDKAKNSAYLQMNSLRAEDTAVYYCARTITTTEGYWFFDVWGQGTLVTVSS VL: DIQLTQSPSSLSASVGDRVTITCRASESVDYYRHSLMQWYQQKPGKAPKLLIYAASKLASGVPSRFSGSGSGTDFTLTISSLQPEDFATYYCQQTRKAYTFGQGTKLEIK : 8.23

I'd like to know its pKd. The binder in question is GUCY2C-1708 (antibody, human IgG1, V domains shown, full human IgG1/kappa) VH: EVQLVESGGGLVQPGGSLRLSCAASGFTFSRPWMHWVRQAPGKGLEWIGEIKPSTGWTNVHEKFKDRFTISVDKAKNSAYLQMNSLRAEDTAVYYCTRTITTTTGYWFFDVWGQGTLVTVSS VL: DIQLTQSPSSLSASVGDRVTITCRASESVDYYKHSLMQWYQQKPGKAPKLLIYAASKLASGVPSRFSGSGSGTDFTLTISSLQPEDFATYYCQQTRKAYTFGQGTKLEIK
8.03
